- targetSystem: human TLR8 (Homo sapiens, UniProt Q9NR97)
- assayInfo: TLR8 inhibition reporter assay (HEK-Blue SEAP reporter)
- conditionNotes: HEK-Blue cells overexpressing human TLR8; R848 15.9 μM; 22 hour incubation
pIC50: −log10 of the molar value.
parameterMeasured: pIC50

# annotated cases, reported pIC50 shown
> print(dat)
                                   compound                              targetsystem  measuredvalue
1  COc1ccc(-c2[nH]c3ccc(N4CCN(C5CCCN(C(C)C)CC5)CC4)cc3c2C(C)C)cc1OC (centres unmarked) [Example 122]  human TLR8 (Homo sapiens, UniProt Q9NR97)           8.47
2  COc1ccc(-c2[nH]c3ccc(N4CCC(N5CCN(C(C)C)CC5)CC4)cc3c2C(C)C)cc1OC [Example 85]  human TLR8 (Homo sapiens, UniProt Q9NR97)           7.80
3  COc1ccc(-c2[nH]c3ccc(N4CCCCC4c4ccncc4)cc3c2C(C)C)cc1OC (centres unmarked) [Example 113]  human TLR8 (Homo sapiens, UniProt Q9NR97)           5.89
4  C#CCCCN1CCN(c2ccc3[nH]c(-c4ccc(OC)c(OC)c4)c(C(C)C)c3c2)CC1 [Example 146]  human TLR8 (Homo sapiens, UniProt Q9NR97)           7.92
5  CCc1c(-c2ccc(OC)c(OC)c2)[nH]c2ccc(N3CCC4(CCN(C)CC4)CC3)cc12 [Example 181]  human TLR8 (Homo sapiens, UniProt Q9NR97)           7.13
6  COc1ccc(-c2[nH]c3ccc(N4CCC(OC5CCNCC5)CC4)cc3c2C(C)C)cc1OC [Example 133]  human TLR8 (Homo sapiens, UniProt Q9NR97)           7.26

a = COc1ccc(-c2[nH]c3ccc(N4CCC(N5CCNCC5)CC4)cc3c2C(C)C)cc1OC [Example 73]
b = COc1ccc(-c2[nH]c3ccc(N4CCC(C5c6ccccc6CCN5C)CC4)cc3c2C(C)C)cc1OC (centres unmarked) [Example 119]
Which of the two gives a bigger number for pIC50: a or b ? Respond using the label that marks the chosen record. b
(b: 7.62, a: 7.19)

---

- targetSystem: human TLR7 (Homo sapiens)
- Sequence (Q9NYK1 27-1049): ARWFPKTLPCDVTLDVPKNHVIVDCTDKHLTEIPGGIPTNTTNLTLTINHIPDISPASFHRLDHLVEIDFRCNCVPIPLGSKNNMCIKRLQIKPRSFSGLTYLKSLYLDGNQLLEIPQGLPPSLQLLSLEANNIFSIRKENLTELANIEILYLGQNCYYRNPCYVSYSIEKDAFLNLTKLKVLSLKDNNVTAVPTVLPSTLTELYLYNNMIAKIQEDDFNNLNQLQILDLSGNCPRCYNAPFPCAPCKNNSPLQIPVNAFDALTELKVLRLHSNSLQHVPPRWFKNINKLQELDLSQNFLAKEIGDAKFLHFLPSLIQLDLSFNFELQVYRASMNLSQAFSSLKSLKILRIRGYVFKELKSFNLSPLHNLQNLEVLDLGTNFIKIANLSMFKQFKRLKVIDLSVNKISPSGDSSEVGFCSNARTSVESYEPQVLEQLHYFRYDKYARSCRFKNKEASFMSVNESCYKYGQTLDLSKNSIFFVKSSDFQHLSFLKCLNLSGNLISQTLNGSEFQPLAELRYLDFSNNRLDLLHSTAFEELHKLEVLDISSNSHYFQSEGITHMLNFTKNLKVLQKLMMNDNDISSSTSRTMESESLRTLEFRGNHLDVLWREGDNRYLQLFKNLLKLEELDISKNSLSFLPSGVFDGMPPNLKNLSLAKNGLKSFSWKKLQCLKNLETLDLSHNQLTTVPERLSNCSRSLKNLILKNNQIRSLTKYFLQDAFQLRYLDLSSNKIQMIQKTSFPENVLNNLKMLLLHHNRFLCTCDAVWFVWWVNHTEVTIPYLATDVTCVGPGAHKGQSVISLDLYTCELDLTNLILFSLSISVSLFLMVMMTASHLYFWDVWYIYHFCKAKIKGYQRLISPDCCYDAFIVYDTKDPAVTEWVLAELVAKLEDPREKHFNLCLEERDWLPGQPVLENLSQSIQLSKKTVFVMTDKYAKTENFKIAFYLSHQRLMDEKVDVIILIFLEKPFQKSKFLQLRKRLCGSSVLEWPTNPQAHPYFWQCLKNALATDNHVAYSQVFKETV
- assayInfo: TLR7 inhibition reporter assay (HEK-Blue SEAP reporter)
- conditionNotes: HEK-Blue cells overexpressing human TLR7; gardiquimod 7.5 μM; 22 hour incubation
parameterMeasured: IC50 (nM)

> print(dat)
                                   compound  parametermeasured  measuredvalue
1  COc1ccc(-c2[nH]c3ccc(NC4CCC(NCCN(C)C)CC4)cc3c2C(C)C)cc1OC (stereo not drawn) [Example 33]               IC50            136
2  Cc1cc2[nH]c(-c3ccnc4[nH]ncc34)c(C(C)C)c2cc1N1CCNCC1               IC50              2
3  CCN1CCC(OC2CCN(c3ccc4[nH]c(-c5ccc(OC)c(OC)c5)c(C(C)C)c4c3)CC2)CC1               IC50             33
4  COc1ccc(-c2[nH]c3ccc(NC(=O)[C@@H](N)CCC(=O)O)cc3c2C(C)C)cc1OC               IC50           1080
5  COc1ccc(-c2[nH]c3ccc(N4CCC(=O)N(CCN(C)C)CC4)cc3c2C(C)C)cc1OC               IC50             31

I = COc1ccc(-c2[nH]c3ccc(NC4CCC(N5CCN(C6CCN(C)CC6)CC5)CC4)cc3c2C(C)C)cc1OC (stereo not drawn) [Example 62]
II = COc1ccc(-c2[nH]c3ccc(N4CCC(N5CCN(CCCN6CCCC6)CC5)CC4)cc3c2C(C)C)cc1OC
Hello, I am sorting some records. Could you say if I or II has the smaller IC50 value? Respond using the label that marks the chosen record. II

---

- targetSystem: human TLR8 (Homo sapiens)
- Sequence (Q9NR97 27-1041): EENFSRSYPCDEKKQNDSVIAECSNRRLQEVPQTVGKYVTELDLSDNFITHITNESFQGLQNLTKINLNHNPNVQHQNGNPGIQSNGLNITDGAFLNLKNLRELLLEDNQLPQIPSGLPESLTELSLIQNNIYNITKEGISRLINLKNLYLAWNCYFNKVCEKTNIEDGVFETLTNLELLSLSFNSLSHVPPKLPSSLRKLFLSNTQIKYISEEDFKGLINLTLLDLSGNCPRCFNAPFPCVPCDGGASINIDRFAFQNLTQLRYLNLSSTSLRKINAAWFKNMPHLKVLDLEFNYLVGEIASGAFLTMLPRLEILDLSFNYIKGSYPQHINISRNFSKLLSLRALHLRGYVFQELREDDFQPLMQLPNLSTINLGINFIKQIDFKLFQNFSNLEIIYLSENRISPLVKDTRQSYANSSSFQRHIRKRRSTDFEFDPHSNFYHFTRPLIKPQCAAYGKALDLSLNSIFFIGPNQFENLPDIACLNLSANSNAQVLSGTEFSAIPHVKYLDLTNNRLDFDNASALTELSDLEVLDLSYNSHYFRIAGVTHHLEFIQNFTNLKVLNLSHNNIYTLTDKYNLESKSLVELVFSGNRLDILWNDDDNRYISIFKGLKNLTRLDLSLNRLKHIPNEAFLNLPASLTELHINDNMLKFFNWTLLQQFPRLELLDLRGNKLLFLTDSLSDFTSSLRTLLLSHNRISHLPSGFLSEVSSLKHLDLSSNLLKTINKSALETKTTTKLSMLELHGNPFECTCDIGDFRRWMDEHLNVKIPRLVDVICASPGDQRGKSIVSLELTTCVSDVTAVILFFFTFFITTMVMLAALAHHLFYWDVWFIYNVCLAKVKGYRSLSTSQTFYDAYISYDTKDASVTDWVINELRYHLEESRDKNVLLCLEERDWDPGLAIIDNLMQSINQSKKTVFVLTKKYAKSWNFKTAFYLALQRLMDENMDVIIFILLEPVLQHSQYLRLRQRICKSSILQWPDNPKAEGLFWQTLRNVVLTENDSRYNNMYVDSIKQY
- assayInfo: TLR8 inhibition reporter assay (HEK-Blue SEAP reporter)
- conditionNotes: HEK-Blue cells overexpressing human TLR8; R848 15.9 μM; 22 hour incubation
- From the text: TLR7/8/9 Inhibition Reporter Assays HEK-Blue™-cells (Invivogen) overexpressing human TLR7, TLR8 or TLR9 receptors were used for screening inhibitors of these receptors using an inducible SEAP (secreted embryonic alkaline phosphatase) reporter gene under the control of the IFN-β minimal promoter fused to five NF-κB and AP-1-binding sites. […]
pIC50: −log10 of the molar value.
parameterMeasured: pIC50

# annotated cases, reported pIC50 shown
> print(dat)
                                   compound  measuredvalue
1  COc1ccc(-c2[nH]c3ccc(N4CCC(N(C)C)C4=O)cc3c2C(C)C)cc1OC (stereo not shown) [Example 3]           7.51
2  COc1ccc(-c2[nH]c3ccc(N4CCC(C(C)(C)O)CC4)cc3c2C(C)C)cc1OC [Example 110]           6.48
3  COc1ccc(-c2[nH]c3ccc(N4CCC(NC5CCN(C(C)C)CC5)CC4)cc3c2C(C)C)cc1OC [Example 192]           8.11
4  CCc1c(-c2ccc(OC)c(OC)c2)[nH]c2ccc(N3CCN(C4CCN(C)CC4)CC3(C)C)cc12 [Example 172]           6.88

A = CCc1c(-c2ccc(OC)c(OC)c2)[nH]c2ccc(N3CCN(CCNC)CC3(C)C)cc12 [Example 150]
B = COc1ccc(-c2[nH]c3ccc(N4CCC(N5CCN(CCCN6CCCC6)CC5)CC4)cc3c2C(C)C)cc1OC [Example 102]
C = COc1ccc(-c2[nH]c3ccc(N4CCC(C5CCN(Cc6cccn6C)CC5)CC4)cc3c2C(C)C)cc1OC [Example 96]
Descending sort on pIC50 required. Sort the labels as requested; that list is your answer. B, A, C
